Assay: Unbound intrinsic clearance in human liver microsomes at 0.5 uM incubated for 4 hrs by equilibrium dialysis and LC-MS/MS method
Assay type: ADME, microsome
Hi there, I'd appreciate the recorded CL free for every entry that follows.
Numbers only, in mL/min/kg.

# annotated cases, reported CL free shown
Cn1cnc(S(=O)(=O)N2CC(Nc3ccccc3)C(c3ccccc3)C2)c1 (racemic) = 250
Cc1cccc(NC2CN(S(=O)(=O)c3cn(C)cn3)CC2c2ccccc2)c1 (racemic) = 817
Cn1cnc(S(=O)(=O)N2CC(Nc3cccc(Cl)c3)C(c3ccc(F)cc3)C2)c1 (racemic) = 3380

Ask: Suppose we examine the compound Cn1cnc(S(=O)(=O)N2CC(Nc3cccc(Cl)c3)C(c3cccc(F)c3)C2)c1 (racemic) ; what CL free value has been reported?
Result: 1450

====

Assay: Unbound intrinsic clearance in rat liver microsomes at 0.5 uM incubated for 4 hrs by equilibrium dialysis and LC-MS/MS method
Type: ADME, microsome
test_readout: CL free (L/h/kg)
One number for each entry, in L/h/kg.

Please review the entries below; each comes with its answer.
Cn1cnc(S(=O)(=O)N2CC(Nc3cccc(Cl)c3)C(c3cccc(F)c3)C2)c1 (racemic) = 266
Cn1cnc(S(=O)(=O)N2CC(Nc3ccccc3)C(c3ccccc3)C2)c1 (racemic) = 57
Cc1cccc(NC2CN(S(=O)(=O)c3cn(C)cn3)CC2c2ccccc2)c1 (racemic) = 119

Next, consider the following molecule.
Ask: Can you look up the measured CL free of Cn1cnc(S(=O)(=O)N2CC(Nc3cccc(Cl)c3)C(c3ccc(F)cc3)C2)c1 (racemic) for me?
Result: 350

====

Test system: MDR1 (P-gp)
Test: Efflux ratio in MDCK2-MDR1 cells at 1 uM incubated for 1 hr by LC-MS/MS method
Type: ADME, cell-based, Canis lupus familiaris
Conditions: dog, MDCK-MDR1
For each record, write down the corresponding efflux ratio at 1 h, 1 µM.
Give bare numbers.

Solved cases below.
Cn1cnc(S(=O)(=O)N2CC(Nc3ccccc3)C(c3ccccc3)C2)c1 (racemic) = 0.9
Cc1cccc(NC2CN(S(=O)(=O)c3cn(C)cn3)CC2c2ccccc2)c1 (racemic) = 0.9
Cn1cnc(S(=O)(=O)N2CC(Nc3cccc(Cl)c3)C(c3ccc(F)cc3)C2)c1 (racemic) = 1.1

Pending molecule:
Ask: Lab request: please report efflux ratio at 1 h, 1 µM under test system MDR1 (P-gp) for Cn1cnc(S(=O)(=O)N2CC(Nc3cccc(Cl)c3)C(c3cccc(F)c3)C2)c1 (racemic)
Result: 1

====

Biological target: UniProt:P48067
Sequence (P48067 whole entry): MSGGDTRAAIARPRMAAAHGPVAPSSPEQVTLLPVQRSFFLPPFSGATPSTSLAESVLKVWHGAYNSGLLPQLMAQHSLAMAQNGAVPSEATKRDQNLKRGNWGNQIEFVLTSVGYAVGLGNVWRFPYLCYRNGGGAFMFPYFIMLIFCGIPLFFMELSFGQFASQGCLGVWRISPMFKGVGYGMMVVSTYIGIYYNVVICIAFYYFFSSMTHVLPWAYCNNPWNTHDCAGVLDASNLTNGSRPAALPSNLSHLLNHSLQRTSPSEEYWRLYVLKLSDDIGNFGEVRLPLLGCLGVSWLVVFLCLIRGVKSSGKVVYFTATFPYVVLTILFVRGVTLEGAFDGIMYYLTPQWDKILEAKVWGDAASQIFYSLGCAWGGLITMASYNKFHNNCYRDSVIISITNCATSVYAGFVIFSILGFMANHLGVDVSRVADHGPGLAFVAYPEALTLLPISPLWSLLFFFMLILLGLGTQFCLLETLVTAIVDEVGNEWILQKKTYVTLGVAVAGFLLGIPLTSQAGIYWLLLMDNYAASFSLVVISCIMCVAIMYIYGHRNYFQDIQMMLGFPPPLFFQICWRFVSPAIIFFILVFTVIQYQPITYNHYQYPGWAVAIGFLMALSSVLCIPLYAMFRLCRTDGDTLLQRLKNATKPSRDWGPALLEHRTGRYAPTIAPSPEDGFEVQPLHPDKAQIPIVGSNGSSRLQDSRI
Experiment: Inhibition of [3H]N-Methyl-SSR504734 binding to human recombinant GlyT1c expressed in CHO cell membranes incubated for 1 hr by liquid scintillation spectrometry
test_readout: pKi
Give bare numbers, as −log10 of the molar value.

Example cases with answers are listed next.
Cn1cnc(S(=O)(=O)N2CC(Nc3cccc(Cl)c3)C(c3ccc(F)cc3)C2)c1 (racemic) = 8.52
Cn1cnc(S(=O)(=O)N2CC(Nc3cccc(Cl)c3)C(c3cccc(F)c3)C2)c1 (racemic) = 7.38
Cn1cnc(S(=O)(=O)N2CC(Nc3cccc(C(F)(F)F)c3)C(c3ccccc3)C2)c1 (racemic) = 8.10

Next, consider the following compound.
Ask: Form field: reported pKi of Cn1cnc(S(=O)(=O)N2CC(Nc3ccccc3)C(c3ccccc3)C2)c1 (racemic)
Result: 6.70

====

Assay: Ratio of free drug level in brain to plasma in rat
Assay type: ADME
Details: read-out: BPR
Provide the recorded Kp uu for the entries that follow.
Answers are plain numbers.

Cn1cnc(S(=O)(=O)N2CC(Nc3cccc(Cl)c3)C(c3ccc(F)cc3)C2)c1 (racemic) = 1.7

# input for lookup
Ask: Entry Cc1cccc(NC2CN(S(=O)(=O)c3cn(C)cn3)CC2c2ccccc2)c1 (racemic) : reported Kp uu = ?
Result: 0.6

====

Tested on: Salmonella typhimurium
Test: Genotoxicity in Salmonella typhimurium TA100 assessed as induction of mutagenicity by measuring revertant colonies at 0.3 to 1000 ug/well incubated for 48 hrs in presence of liver S9 fraction by mini Ames test
Type: toxicity, organism-based
Conditions: salmonella enterica subsp. enterica serovar typhimurium, s9, 48 h
test_readout: Activity

Cc1cccc(NC2CN(S(=O)(=O)c3cn(C)cn3)CC2c2ccccc2)c1 (racemic) = Non-Toxic
Cn1cnc(S(=O)(=O)N2CC(Nc3cccc(C(F)(F)F)c3)C(c3cccnc3)C2)c1 (racemic) = Non-Toxic
Cn1cnc(S(=O)(=O)N2CC(Nc3cccc(C(F)(F)F)c3)C(c3ccccc3)C2)c1 (racemic) = Non-Toxic

====

Tested on: Salmonella typhimurium
Experiment: Genotoxicity in Salmonella typhimurium TA98 assessed as induction of mutagenicity by measuring revertant colonies at 0.3 to 1000 ug/well incubated for 48 hrs in presence of liver S9 fraction by mini Ames test
Format: toxicity, organism-based
Conditions: salmonella enterica subsp. enterica serovar typhimurium, s9, 48 h
test_readout: Activity

Cn1cnc(S(=O)(=O)N2CC(Nc3cccc(Cl)c3)C(c3cccc(F)c3)C2)c1 (racemic) = Non-Toxic
Cn1cnc(S(=O)(=O)N2CC(Nc3cccc(C(F)(F)F)c3)C(c3cccnc3)C2)c1 (racemic) = Non-Toxic
Cn1cnc(S(=O)(=O)N2CC(Nc3ccccc3)C(c3ccccc3)C2)c1 (racemic) = Non-Toxic
Cn1cnc(S(=O)(=O)N2CC(Nc3cncc(C(F)(F)F)c3)C(c3ccc(F)cc3)C2)c1 (racemic) = Non-Toxic
Cc1cccc(NC2CN(S(=O)(=O)c3cn(C)cn3)CC2c2ccccc2)c1 (racemic) = Non-Toxic

// for each molecule in input: emit Activity
1. Cn1cnc(S(=O)(=O)N2CC(Nc3cccc(Cl)c3)C(c3ccc(F)cc3)C2)c1 (racemic)
2. Cn1cnc(S(=O)(=O)N2CC(Nc3cccc(C(F)(F)F)c3)C(c3ccccc3)C2)c1 (racemic)

Result:
Non-Toxic
Non-Toxic
